System: BT-474
experimental protocol: normalised viability (% of control), CellTiter-Blue; higher = more viable cells (about 100 = DMSO control)
test conditions: 1 nM; incubation time: 72 h
Catalogue of molecules with associated normalised viability

// worked examples, normalised viability included
# molecule, result type, result
records = [
    ("Nc1nc(Cl)nc2c1ncn2[C@H]1C[C@H](O)[C@@H](CO)O1 [Cladribine]", "normalised viability", "112%"),
    ("Cc1c2oc3c(C)ccc(C(=O)N[C@@H]4C(=O)N[C@H](C(C)C)C(=O)N5CCC[C@H]5C(=O)N(C)CC(=O)N(C)[C@@H](C(C)C)C(=O)O[C@@H]4C)c3nc-2c(C(=O)N[C@@H]2C(=O)N[C@H](C(C)C)C(=O)N3CCC[C@H]3C(=O)N(C)CC(=O)N(C)[C@@H](C(C)C)C(=O)O[C@@H]2C)c(N)c1=O [Dactinomycin]", "normalised viability", "73.3%"),
    ("CO[C@H]1C[C@@H]2CC[C@@H](C)[C@@](O)(O2)C(=O)C(=O)N2CCCC[C@H]2C(=O)O[C@H]([C@H](C)C[C@@H]2CC[C@@H](OC(=O)C(C)(CO)CO)[C@H](OC)C2)CC(=O)[C@H](C)/C=C(\\C)[C@@H](O)[C@@H](OC)C(=O)[C@H](C)C[C@H](C)/C=C/C=C/C=C/1C [Temsirolimus]", "normalised viability", "80%"),
]

Task item: GET /values?readout=normalised viability&system=BT-474&item= Cc1ccc(F)c(NC(=O)Nc2ccc(-c3cccc4[nH]nc(N)c34)cc2)c1 [Linifanib]
Reply: 113%

Task item: Request body: readout normalised viability, system BT-474, query CC[C@]1(O)C[C@@H]2CN(CCc3c([nH]c4ccccc34)[C@@](C(=O)OC)(c3cc4c(cc3OC)N(C)[C@H]3[C@@](O)(C(=O)OC)[C@H](OC(C)=O)[C@]5(CC)C=CCN6CC[C@]43[C@@H]65)C2)C1 [Vinblastine] . Return the value.
Reply: 51.8%

The origin of these recorded values is the supplement of paper PMC4862054.
